experiment: Metabolic stability in mouse liver microsomes; type: in vitro ADME; conditions: pH 7.4; CD-1 mouse liver microsomes 0.5 mg/mL, NADPH, 45 minutes, 37° C.; read-out: Half-life in liver microsomes (t1/2), Mouse
EXPERIMENTAL READOUT: half-life at 1 μM
Report field: quantity (unit follows the number).

COMPOUND | half-life at 1 μM
CNC(=O)N1CCn2c(C3CCOCC3)nc(-c3cccc4cc(-c5cnc(C)s5)ncc34)c2C1 [Compound 4, reference compound] | 86.7 h

Looking up CNC(=O)N1CCn2c(C3CCOCC3)nc(-c3cccc4nc(-c5cnc(C)s5)c(C(F)F)cc34)c2C1 [Compound 1] , I see its half-life at 1 μM listed as 69.8 h
